target: human FXR (Homo sapiens, UniProt Q96RI1); construct: expressed in transfected cells; host or cells: HEK293 cells stably carrying a 5xGal4-response-element firefly luciferase reporter, transiently transfected with the pcDNA3.1-Gal4-FXR plasmid; assay: transient human FXR/Gal4-luciferase reporter assay; assay type: cell-based; details: Gal4-hFXR reporter in HEK293 cells; relative to 8 μM GW-4064; read-out: FXR EC50
Sequence (Q96RI1 262-486 limits assumed): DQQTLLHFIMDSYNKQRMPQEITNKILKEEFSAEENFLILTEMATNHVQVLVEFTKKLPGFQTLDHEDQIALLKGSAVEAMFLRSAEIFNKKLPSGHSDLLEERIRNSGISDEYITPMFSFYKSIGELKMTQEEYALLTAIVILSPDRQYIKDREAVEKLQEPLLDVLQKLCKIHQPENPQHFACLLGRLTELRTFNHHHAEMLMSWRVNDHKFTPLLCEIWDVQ
MEASURED_PROPERTY: log10 EC50 (log10 of the value in nM)
Remember, log10 of EC50, in nM.

Query: Consider the molecule shown here: Cn1nnc(-c2ccc(N3CCC4(CC3)CC(=Cc3c(-c5c(Cl)cccc5Cl)noc3C3CC3)C4)cc2)n1 [Example 53] What is its recorded log10 EC50?
Response: 2.96

Query: Consider the molecule shown here: O=C(O)c1cc(OC2COC2)c2cc(N3CCC4(CC3)CC(=Cc3c(-c5ccccc5C(F)(F)F)noc3C3CC3)C4)ccc2n1 [Example 137] What is its recorded log10 EC50?
Response: 1.89

Query: Consider the molecule shown here: Cc1cccc(Cl)c1-c1noc(C2CC2)c1C=C1CC2(CCN(c3ccc4c(C(=O)O)cn(C)c4c3)CC2)C1 [Example 59] What is its recorded log10 EC50?
Response: 1.00

Query: Consider the molecule shown here: O=C(c1cc(OC2CCC2)c2cc(N3CCC4(CC3)CC(Cc3c(-c5ccccc5C(F)(F)F)noc3C3CC3)C4)ccc2n1)N1CCC(O)CC1 [Example 190] What is its recorded log10 EC50?
Response: 1.04

Query: Consider the molecule shown here: O=C(O)c1cc(C(F)(F)F)c2cc(N3CCC4(CC3)CC(=Cc3c(-c5ccccc5OC(F)(F)F)noc3C3CC3)C4)ccc2n1 [Example 25] What is its recorded log10 EC50?
Response: 1.36

Next:
Query: Consider the molecule shown here: CCOc1cc(C(=O)O)nc2ccc(N3CCC4(CC3)CC(Cc3c(-c5ccccc5C(F)(F)F)noc3C3CC3)C4)cc12 [Example 99] What is its recorded log10 EC50?
Response: 1.23

Query: Consider the molecule shown here: COc1ccc(C(=O)O)c2ccc(N3CCC4(CC3)CC(=Cc3c(-c5ccccc5C(F)(F)F)noc3C3CC3)C4)nc12 [Example 117] What is its recorded log10 EC50?
Response: 2.38

Query: Consider the molecule shown here: O=C(O)c1cc(OCCO)c2cc(N3CCC4(CC3)CC(=Cc3c(-c5c(Cl)cncc5Cl)noc3C3CC3)C4)ccc2n1 [Example 95] What is its recorded log10 EC50?
Response: 2.30

Query: Consider the molecule shown here: O=C(O)c1cccc(N2CCC3(CC2)CC(Cc2c(-c4c(Cl)cccc4Cl)noc2C2CC2)C3)n1 [Example 12] What is its recorded log10 EC50?
Response: 3.34

Query: Consider the molecule shown here: Cn1cc(C(=O)O)c2ccc(N3CCC4(CC3)CC(=Cc3c(-c5c(Cl)cccc5Cl)noc3C3CC3)C4)cc21 [Example 24] What is its recorded log10 EC50?
Response: 0.95

Query: Consider the molecule shown here: O=C(O)c1cc2ccc(N3CCC4(CC3)CC(Cc3c(-c5ccccc5C(F)(F)F)noc3C3CC3)C4)cc2nn1 [Example 34] What is its recorded log10 EC50?
Response: 3.13
